Tested on: HT-29
Assay: Cytotoxicity against human HT-29 cells assessed as growth inhibition measured by SRB assay
Type: functional, cell-based
Known IC50 of a selection of molecules

Some entries whose results are on file:
Cc1c2ccncc2c(C)c2c1[nH]c1ccccc12 : 1.95 µM
COC(=O)CC/C(C)=C/Cc1c(OC)c(C)c2c(c1OCC#CCN1CCN(C(c3ccccc3)c3ccccc3)CC1)C(=O)OC2 : > 50 µM

Record COC(=O)CC/C(C)=C/Cc1c(OC)c(C)c2c(c1OCC#CCN1CCN(c3ccc(C)cc3)CC1)C(=O)OC2 : what is its IC50 with HT-29?
> 50 µM

For the record COC(=O)CC/C(C)=C/Cc1c(OC)c(C)c2c(c1OCC#CCN1CCN(c3ccccc3)CC1)C(=O)OC2 , what value of IC50 is listed for HT-29?
> 50 µM

Which IC50 is reported with HT-29 for this entry: CCCCNc1ccc(CC#CCOc2c(C/C=C(\C)CCC(=O)OC)c(OC)c(C)c3c2C(=O)OC3)cc1 ?
36.7 µM

Form field: IC50 recorded for COC(=O)CC/C(C)=C/Cc1c(OC)c(C)c2c(c1OCC#CCN1CCN(Cc3ccc4c(c3)OCO4)CC1)C(=O)OC2 with HT-29 (enter value)
> 50 µM

Entry COC(=O)CC/C(C)=C/Cc1c(OC)c(C)c2c(c1OCC#CCN1CCCC1)C(=O)OC2 , system HT-29: what IC50 was measured?
46.5 µM

Origin of the recorded values: ChEMBL document CHEMBL4819142
